Test: budding yeast growth changes without added modifier – OD600, strain BY4716, 24 h, basal condition, primary screen (AID 1173)
Conditions: S. cerevisiae BY4716 growth, OD600, 24 h; higher = more signal, called active from +8 up or from −8 down
If the reported z-score equals or exceeds -0.1, assign MET. If not, assign NOT MET.

Below are worked cases with known answers.
Compound	Label Value
CCC(CC)C(O)C1C=CC2C(=O)N(c3ccccc3)C(=O)C2N1Nc1ccccc1 (stereo not drawn)	NOT MET
O=C1OCC=C[C@H]2OC34C=CCN(Cn5nnc6ccccc65)C(=O)[C@H]3N(CCCCCO)C(=O)[C@@H]4[C@@H]12 (stereo partly drawn)	MET
C=C(CCCC)/C(=C/C[C@H](OC(C)=O)c1ccccc1OCCO)c1cnc2ccccc2c1	NOT MET
[N-]=[N+]=Nc1ccccc1C[C@]1(C(=O)NCC(O)CO)N=C(c2ccc(OCCCO)cc2)O[C@H]1c1ccccc1 (stereo partly drawn)	NOT MET
CCOC(=O)C1=CC[C@@H](c2ccccc2)N(S(=O)(=O)c2ccc(C)cc2)[C@H]1c1ccc(CC)cc1	MET

## Task In plain terms: is recorded z-score at least -0.1 for `COC(=O)[C@@]1(Cc2ccc(OC)cc2)[C@H]2c3cc(C(=O)N4CCCC4)n(CCc4ccc(O)c(O)c4)c3C[C@H]2CN1C(=O)c1ccccc1` ?
## Result MET

## Task Test whether the compound `CC(C)Cc1ccc(CN2CC[C@@H](N)C2)cc1` records z-score of -0.1 or higher.
## Result NOT MET

====

Reported z-score values for the following compounds.
Target: NADPH oxidase 4 (Homo sapiens)
Test: compounds shifting NOX4 Amplex Red fluorescence – cell-based, HEK293-NOX4, tetracycline-induced, NOX inhibitor project, primary screen (AID 1160)
Settings: HEK293-NOX4, Amplex Red H2O2 fluorescence, 45 min; higher = more signal, called active from +8 up or from −8 down
Reply briefly: the number, and no unit.

Some compounds with known z-score results, for comparison:
Compound	Test Result
O=C1OCCC/C=C\[C@H]2OC34C=CCN(c5ccc6ccccc6c5)C(=O)[C@H]3N(CCCCCO)C(=O)[C@@H]4C12 (stereo not given in full)	-0.15
C=CCN1Cc2ccccc2[C@@H]2OC(c3ccc(OCCCO)cc3)=N[C@]2(CCS(=O)(=O)c2ccccc2)C1=O	0.827

## Task Report z-score for `C=C[C@H](C)[C@@H](OC(=O)Nc1ccc(SC)cc1)c1ccc(O)c2ccccc12` tested on NADPH oxidase 4 (Homo sapiens).
## Result -1.45

## Task Hello, I am looking for reported z-score with NADPH oxidase 4 (Homo sapiens) for OCC1C=C(/C=C/c2ccccc2)CN1Cc1ccccc1Br (stereo not given) . Could you help?
## Result -2.84

## Task Short answer please: z-score, NADPH oxidase 4 (Homo sapiens), entry `Cc1c(NC(=O)/C(C#N)=C/c2cccc([N+](=O)[O-])c2)c(=O)n(-c2ccccc2)n1C`
## Result -0.497

## Task // fetch NADPH oxidase 4 (Homo sapiens) z-score for `[N-]=[N+]=Nc1ccccc1C[C@]1(C(=O)NCc2ccccc2)N=C(c2ccc(OCCCO)cc2)O[C@H]1c1ccccc1N=[N+]=[N-]`
## Result 0.483

## Task // lookup z-score | system=NADPH oxidase 4 (Homo sapiens) | key= COc1ccc(NN2C(C(O)c3ccc(N(C)C)cc3)C=CC3C(=O)N(C4CCCCC4)C(=O)C32)cc1 (stereo not given)
## Result -3.43

====

Test system: Sonic hedgehog protein (Shh)
Test: Sonic hedgehog microarray binding compounds – biochemical, small-molecule microarray, 635/667 nm fluorescence, primary screen (AID 1151);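 note: Shh protein binding to compounds spotted on small-molecule microarray slides; score combines spot fluorescence intensity with signal-to-noise across triplicate slides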
Settings: 635 nm fluorescence, higher = more signal
Result Type: composite z-score
Form: value (number only, do not type unit).

Check out these entries, answers already filled in.
Smiles	Tested System	composite z-score
CO[C@H]1O[C@H](CO)[C@@H](OC(=O)Nc2ccccc2)[C@@H]2OC(=O)[C@@H](Cc3ccc4ccccc4c3)C/C=C/C[C@H](Cc3ccc4ccccc4c3)C(=O)O[C@@H]12	Sonic hedgehog protein (Shh)	0.662
C=CCOC(=O)[C@H]1[C@@H]2C(=O)O[C@@H](c3ccccc3)[C@@H](c3ccccc3)N2[C@@H](c2ccc(OCCOC(=O)[C@H]3C[C@H]4C(=O)N[C@@H](CCCCN(C)C)C(=O)N4[C@H]3c3cccc(OCCO)c3)cc2)[C@]12C(=O)Nc1ccc(I)cc12	Sonic hedgehog protein (Shh)	2.27
C=C(CCCC)/C(=C/C[C@@H](OC(C)=O)c1cccc(OCCO)c1)c1cnc2ccccc2c1	Sonic hedgehog protein (Shh)	2.05

## Task // composite z-score lookup, key: `CC(C)[Si](C#CCCCC#N)(Oc1ccccc1Br)C(C)C`
## Result 0.544

## Task Recorded composite z-score for `COCCCNC(=O)[C@@H]1c2ccccc2C(=O)N(Cc2ccccc2)[C@H]1c1ccc(CO)cc1` , please?
## Result 0.857

## Task Looking for the measured composite z-score of `CC(C)(C)OC(=O)CC[C@]1(C(=O)NCCN2CCOCC2)COC(c2ccc(OCCCO)cc2)=N1` , can you help?
## Result 0.998

## Task # lookup: composite z-score of `COc1ccc([C@H]2C[C@H]3C(I)=C[C@@H]2C(=O)[C@]32CO2)cc1`
## Result 0.817

## Task Can you look up the measured composite z-score of `O=C1N(CCS(=O)(=O)c2ccccc2)c2ccccc2[C@@H]2OC(c3ccc(OCCCO)cc3)=N[C@]12Cc1ccccc1` for me?
## Result 1.95

====

Experiment: resazurin metabolic signal in A549 cells – cell-based, resazurin fluorescence, 24 h, PK04 Diversity Set, profiling panel (AID 1171); note: test concentration not given here
Details: A549 viability, higher = more signal, called active from +8 up or from −8 down
Using z-score as the sorting value, the categories are bin 0: < -0.5; bin 1: ≥ -0.5 and < -0.01; bin 2: ≥ -0.01

Some solved entries appear below for comparison.
Compound	Label Value
CCCCN1CC=CC23O[C@@H]4C=CCCOC(=O)C4[C@H]2C(=O)N(CCCCCO)[C@@H]3C1=O (stereo not given in full)	bin 1
O=C1OCC=C[C@H]2OC34C=CCN(CCN5CCOCC5)C(=O)[C@H]3N(CCO)C(=O)[C@@H]4[C@@H]12 (stereo not given in full)	bin 1
CC(C)(C)OC(=O)CC[C@]1(C(=O)NCCN2CCOCC2)COC(c2ccc(OCCCO)cc2)=N1	bin 2
COc1ccccc1CN1C(=O)c2ccccc2[C@@]2(Cc3ccccc3N(CCCN(C)C)C2=O)[C@@H]1c1ccc(CO)cc1	bin 1
O=C1OCC=C[C@H]2OC34C=CCN(Cn5nnc6ccccc65)C(=O)[C@H]3N(CCCCCO)C(=O)[C@@H]4[C@@H]12 (stereo not given in full)	bin 1
NCCCCCNC(=O)[C@H]1C[C@H]2C(=O)N[C@@H](Cc3ccccc3)C(=O)N2[C@H]1c1cccc(OCCO)c1	bin 2
COc1ccc(C#Cc2ccc3c(c2)[C@]2(C(=O)N3)[C@H](c3ccc(O)cc3)N3[C@H](c4ccccc4)[C@H](c4ccccc4)OC(=O)[C@H]3[C@@H]2C(=O)N2CCc3cc(OC)c(OC)cc3C2)cc1	bin 0
COC(=O)c1c(CC[C@@H](CO)NC(=O)N[C@H](Cc2ccccc2)Cn2cc(-c3ccccn3)nn2)oc(C(C)=O)c1C(=O)OC	bin 0

## Task Would you mind sorting `CN(C)CCCC[C@@H]1NC(=O)[C@H]2C[C@@H](C(=O)NCCCCCN)[C@@H](c3cccc(OCCO)c3)N2C1=O` into the appropriate category?
## Result bin 2

## Task Which bin, given its z-score, does `COCC(=C=CC[C@H](O)c1ccccc1OCCO)CCO` occupy?
## Result bin 1

## Task Which bin should I file `O[C@@H](Cc1ccccc1)[C@@H](/C=C/C1CC1)NCc1cccc(Cl)c1` under?
## Result bin 0

## Task Field: class (z-score) — entry: `[N-]=[N+]=Nc1ccccc1[C@H]1OC(c2ccc(OCCCO)cc2)=N[C@@]1(Cc1ccccc1)C(=O)N1CCOCC1`
## Result bin 0

## Task Please classify: `O=C1O[C@H](c2ccccc2)[C@H](c2ccccc2)N2[C@H]1[C@@H](C(=O)N1CCN(c3ncccn3)CC1)[C@]1(C(=O)Nc3ccc(C#CC4=CCCCC4)cc31)[C@H]2c1ccccc1OCCO`
## Result bin 0

## Task Input `C[N+](C)(C)CCCC[C@@H]1NC(=O)[C@@H]2C[C@H](C(=O)NCCCCCN)[C@H](c3ccc(O)cc3)N2C1=O` ; output its category
## Result bin 1

## Task Just checking, what class would you give `C=CCNC(=O)[C@H]1[C@@H]2C(=O)O[C@@H](c3ccccc3)[C@@H](c3ccccc3)N2[C@@H](c2ccc(OCCO)cc2)[C@]12C(=O)Nc1ccc(C#CCC(C(=O)OC)C(=O)OC)cc12` here?
## Result bin 2

====

Experiment: S. pombe growth modifiers, basal conditions – strain 972, OD600, 24 h, no modulator, primary screen (AID 1090);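 note: basal condition with compound alone and no growth modifier present; test concentration not given here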
Conditions: S. pombe 972 growth, higher = more signal, called active from +8 up or from −8 down
Active and inactive are the calls of the source.
Result Type: z-score

Example entries begin here.
Molecule	z-score
O=C1NC(=O)C2C1C=CC(C(O)c1ccc(I)cc1)N2Nc1ccc(Cl)cc1Cl (configuration not stated)	-5.52 (inactive)
O=C(CS)NCCCCCNC(=O)[C@H]1C[C@H]2C(=O)NCC(=O)N2[C@H]1c1ccc(O)cc1	1.02 (inactive)

## Task Please look up its z-score: CC(C)N1CC=CC23O[C@@H]4C=CCOC(=O)[C@@H]4[C@H]2C(=O)N(CCCCCO)[C@@H]3C1=O (some centres not stated)
## Result -0.288 (inactive)

## Task Look at this molecule and give its reported z-score. `[N-]=[N+]=NCc1ccccc1[C@@H]1OC(c2ccc(OCCCO)cc2)=N[C@]1(CCS(=O)(=O)c1ccccc1)C(=O)N1CCCCC1`
## Result 0.454 (inactive)

## Task Look up z-score for this molecule: `[N-]=[N+]=Nc1ccccc1C[C@]1(C(=O)NCc2ccccc2)N=C(c2ccc(OCCCO)cc2)O[C@H]1c1ccccc1N=[N+]=[N-]`
## Result 1.63 (inactive)

## Task If you can, please state the reported z-score value of CCOc1ccc(N2C(=O)CSC2c2cccc([N+](=O)[O-])c2)cc1 (configuration not stated) .
## Result 0.527 (inactive)

## Task I would be grateful if you could share the reported z-score for `C=CCNC(=O)[C@@H]1[C@H]2C(=O)O[C@H](c3ccccc3)[C@H](c3ccccc3)N2[C@H](c2ccc(OCCO)cc2)[C@@]12C(=O)N(C(=O)OCCOC)c1ccc(C#CCC(C(=O)OC)C(=O)OC)cc12` .
## Result 0.552 (inactive)
